- test.summary: MRP1 drug-resistance reversers in H69AR cells – cell-based, doxorubicin co-treatment, pilot screen (AID 601)
- details: H69AR cells, CellTiter-Glo, 72 h; compound alone cytotoxicity; at 10 µM
# reported viability; entries follow
measure.name: viability

molecule="CCn1c(C(C#N)/C(=N\\S(=O)(=O)c2cccs2)c2ccccc2)nc2ccccc21 (stereo not given)" endpoint_value=81.7%
molecule=O=C(c1ccc2nc(N3CCOCC3)sc2c1)N1CCCC1 endpoint_value=108%
molecule="CC(NC(=O)c1cc2c(=O)n(C)c3ccccc3c2n1C)c1ccc2c(c1)OCCO2 (stereo not given)" endpoint_value=42.7%
molecule="COc1cccc(C2CC(=O)Nc3c2c(=O)n(C)c(=O)n3C)c1OC (stereo not given)" endpoint_value=102%
molecule="CCCNC(=O)C1CC(=O)N(c2ccc(OCC(=O)Nc3cc(C)cc(C)c3)cc2)C1 (stereo not given)" endpoint_value=95.6%
